Tested on: prostate-specific antigen (PSA) mRNA
assay-notes: PSA mRNA levels in LMR20 cells
Assay type: cell-based, human
measurement-context: LMR20 cells, R1881 10 nM 72 hrs, ASO 0.20 μM
Oligonucleotides are written 5' to 3', each unit as a sugar letter and its base; * is a phosphorothioate linkage, no mark a phosphodiester; rarer units and linkages stand in square brackets, end groups in braces. Plain capitals give the bases only. e = 2'-O-(2-methoxyethyl) (MOE); l = locked nucleic acid (LNA); k = constrained ethyl (cEt); [5mC] = 5-methylcytosine; d = 2'-deoxy (DNA)
The entries below are paired with their reported PSA mRNA levels (% baseline value) after treatment with R1881.

Recorded results for 3 substances are shown here.
substance: 554221 (ACCAAGTTTCTTCAGC; sugars from the 5' end l3 d10 l3, all phosphorothioate, methylation of C not given here) [compound 554221]
measured-result: 93 % baseline value

substance: 569236 (antisense eT*kG*kA*kT*dT*dT*dA*dA*dT*dG*dG*kT*kT*kG*e[5mC]*eA) [compound 569236]
measured-result: 90 % baseline value

substance: 549458 (kG*kT*kT*dG*dA*dT*dT*dT*dA*dA*dT*dG*dG*kT*kT*kG) [compound 549458]
measured-result: 67 % baseline value

Next substance, please.
Query: PSA mRNA levels (% baseline value) after treatment with R1881; subject: 560131 (antisense kT*kT*kG*dA*dT*dT*dT*dA*dA*dT*dG*dG*kT*kT*kG*e[5mC]) [compound 560131]
77 % baseline value

----------
System: AR mRNA
assay-notes: Dose-dependent antisense inhibition of human AR in HuVEC cells (electroporation, qRT-PCR RTS3559, IC50)
Type: cell-based
measurement-context: HuVEC, ~16 h; Table 3
Oligonucleotides are written 5' to 3', each unit as a sugar letter and its base; * is a phosphorothioate linkage, no mark a phosphodiester; rarer units and linkages stand in square brackets, end groups in braces. Plain capitals give the bases only. k = constrained ethyl (cEt); [5mC] = 5-methylcytosine; d = 2'-deoxy (DNA)
// values below are reported IC50
# value in nM; strip the unit string

substance: 549358 (kA*kT*kG*dG*dT*dG*d[5mC]*dT*dG*dG*d[5mC]*d[5mC]*dT*k[5mC]*kG*k[5mC]; antisense) [compound 549358]
IC50, nM: 141
//
substance: 549374 (kG*k[5mC]*kG*d[5mC]*dT*dG*d[5mC]*d[5mC]*dG*dT*dA*dG*dT*k[5mC]*k[5mC]*kA; antisense) [compound 549374]
IC50, nM: 108
//
substance: 549362 (k[5mC]*k[5mC]*k[5mC]*dG*dA*dA*dG*d[5mC]*dT*dG*dT*dT*d[5mC]*k[5mC]*k[5mC]*k[5mC]; antisense) [compound 549362]
IC50, nM: 447
//
substance: 549383 (k[5mC]*k[5mC]*kA*dA*dA*d[5mC]*dG*d[5mC]*dA*dT*dG*dT*d[5mC]*k[5mC]*k[5mC]*k[5mC]; antisense) [compound 549383]
IC50, nM: 270
//
substance: 549381 (kG*k[5mC]*k[5mC]*dG*d[5mC]*d[5mC]*dA*dG*dG*dG*dT*dA*d[5mC]*k[5mC]*kA*k[5mC]; antisense) [compound 549381]
IC50, nM: 261

// below: IC50 requested for another substance
Return reported IC50; argument: 549377 (kA*kG*kG*dA*dT*dG*dA*dG*dG*dA*dA*dG*d[5mC]*kG*kG*k[5mC]; antisense) [compound 549377]
216

----------
Tested on: AR mRNA
assay-notes: Dose-dependent antisense inhibition of human AR in HuVEC cells (electroporation, qRT-PCR RTS3559, IC50)
Assay type: cell-based
measurement-context: 125.0 nM; HuVEC, ~16 h; Table 12
Description: After a treatment period of approximately 16 hours, RNA was isolated from the cells and AR mRNA levels were measured by quantitative real-time PCR. Human AR primer probe set RTS3559 was used to measure mRNA levels. AR mRNA levels were adjusted according to total RNA content, as measured by RIBOGREEN®. […] After a treatment period of approximately 16 hours, RNA was isolated from the cells and AR mRNA levels were measured by quantitative real-time PCR. […]
Oligonucleotides are written 5' to 3', each unit as a sugar letter and its base; * is a phosphorothioate linkage, no mark a phosphodiester; rarer units and linkages stand in square brackets, end groups in braces. Plain capitals give the bases only. e = 2'-O-(2-methoxyethyl) (MOE); k = constrained ethyl (cEt); [5mC] = 5-methylcytosine; d = 2'-deoxy (DNA)
readout: percent inhibition of AR (%)
Could you give me the number in %? Just the number is fine.

Some substances with known percent inhibition of AR results, for comparison:
substance: 569221 (antisense eT*eG*kA*kT*kT*dT*dA*dA*dT*dG*dG*dT*dT*kG*k[5mC]*kA) [compound 569221]
percent inhibition of AR [%]: 32
--
substance: 549458 (kG*kT*kT*dG*dA*dT*dT*dT*dA*dA*dT*dG*dG*kT*kT*kG) [compound 549458]
percent inhibition of AR [%]: 22
--
substance: 569217 (antisense eG*kT*kT*kG*dA*dT*dT*dT*dA*dA*dT*dG*kG*kT*kT*eG) [compound 569217]
percent inhibition of AR [%]: 39

Provide value of percent inhibition of AR for this record tested with AR mRNA: 569214 (antisense kG*kG*kT*dT*dG*dA*dT*dT*dT*dA*dA*dT*kG*kG*kT*eT) [compound 569214]
26

----------
Test system: TMPRSS2 mRNA
assay-notes: TMPRSS2 mRNA levels in LMR20 cells
Type: cell-based, human
measurement-context: LMR20 cells, DHT 10 nM 72 hrs, ASO 0.04 μM
Oligonucleotides are written 5' to 3', each unit as a sugar letter and its base; * is a phosphorothioate linkage, no mark a phosphodiester; rarer units and linkages stand in square brackets, end groups in braces. Plain capitals give the bases only. e = 2'-O-(2-methoxyethyl) (MOE); l = locked nucleic acid (LNA); k = constrained ethyl (cEt); [5mC] = 5-methylcytosine; d = 2'-deoxy (DNA)
readout: TMPRSS2 mRNA levels (% baseline value) after treatment with DHT
Give the number; % baseline value is assumed, so skip it.

Worked cases, answers included:
substance: 569236 (antisense eT*kG*kA*kT*dT*dT*dA*dA*dT*dG*dG*kT*kT*kG*e[5mC]*eA) [compound 569236]
measured-result: 113
//
substance: 554221 (ACCAAGTTTCTTCAGC; sugars from the 5' end l3 d10 l3, all phosphorothioate, methylation of C not given here) [compound 554221]
measured-result: 121
//
substance: 560131 (antisense kT*kT*kG*dA*dT*dT*dT*dA*dA*dT*dG*dG*kT*kT*kG*e[5mC]) [compound 560131]
measured-result: 112

Then there is this substance:
TMPRSS2 mRNA levels (% baseline value) after treatment with DHT for 549458 (kG*kT*kT*dG*dA*dT*dT*dT*dA*dA*dT*dG*dG*kT*kT*kG) [compound 549458] ?
127

----------
System: AR mRNA
assay-notes: Dose-dependent antisense inhibition of human AR in HuVEC cells (electroporation, qRT-PCR RTS3559, IC50)
Assay type: cell-based
measurement-context: HuVEC, ~16 h; Table 15
Oligonucleotides are written 5' to 3', each unit as a sugar letter and its base; * is a phosphorothioate linkage, no mark a phosphodiester; rarer units and linkages stand in square brackets, end groups in braces. Plain capitals give the bases only. k = constrained ethyl (cEt); [5mC] = 5-methylcytosine; d = 2'-deoxy (DNA)
readout: pIC50
Conceptually, pIC50 converts a concentration in mol/L into minus its log10.

As a guide, the following entries are already answered.
substance: 549372 (kA*kA*kG*dT*dT*dG*dT*dA*dG*dT*dA*dG*dT*k[5mC]*kG*k[5mC]) [compound 549372]
target-system: AR mRNA
pIC50: 6.54

substance: 586224 (kT*kT*kG*kA*kT*dT*dT*dA*dA*dT*dG*dG*dT*kT*kG*k[5mC]; antisense) [compound 586224]
target-system: AR mRNA
pIC50: 7.30

substance: 586225 (kG*kT*kT*kG*kA*dT*dT*dT*dA*dA*dT*dG*dG*kT*kT*kG; antisense) [compound 586225]
target-system: AR mRNA
pIC50: 6.89

substance: 586227 (kT*kG*kA*kT*kT*dT*dA*dA*dT*dG*dG*dT*dT*kG*k[5mC]*kA; antisense) [compound 586227]
target-system: AR mRNA
pIC50: 6.89

Field request: pIC50 | item: 549458 (kG*kT*kT*dG*dA*dT*dT*dT*dA*dA*dT*dG*dG*kT*kT*kG) [compound 549458]
6.72

Dear colleague, I am looking for the recorded pIC50 of the following substance: 586124 (kG*kA*kT*dT*dT*dA*dA*dT*dG*dG*dT*dT*dG*k[5mC]*kA*kA; further chemistry not given here) [compound 586124]
6.89
